Reference source for all entries: patent US9708326B2

Below are compounds with their IC50 as measured on UniProt:P06239.
Sequence (P06239 whole entry, species assumed): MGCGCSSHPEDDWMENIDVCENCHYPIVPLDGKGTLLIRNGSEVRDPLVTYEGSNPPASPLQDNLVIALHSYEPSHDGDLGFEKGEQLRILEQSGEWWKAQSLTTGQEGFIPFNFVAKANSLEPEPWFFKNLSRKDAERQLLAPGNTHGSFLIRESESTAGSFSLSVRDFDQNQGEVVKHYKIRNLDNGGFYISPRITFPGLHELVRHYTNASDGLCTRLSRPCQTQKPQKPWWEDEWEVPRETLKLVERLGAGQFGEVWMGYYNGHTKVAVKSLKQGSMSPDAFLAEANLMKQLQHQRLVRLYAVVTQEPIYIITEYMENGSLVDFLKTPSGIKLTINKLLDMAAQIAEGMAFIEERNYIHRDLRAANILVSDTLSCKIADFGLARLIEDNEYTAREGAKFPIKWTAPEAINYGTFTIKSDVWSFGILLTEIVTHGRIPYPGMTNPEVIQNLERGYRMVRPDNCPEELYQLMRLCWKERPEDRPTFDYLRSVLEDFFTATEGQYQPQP
readoutName: IC50

In [3]: df
Out[3]:
                               smilesstring  readoutvalue
0  CN(C)C/C=C/C(=O)Nc1cccc(-n2c(=O)[nH]c3cnc(Nc4ccc(F)cc4)nc32)c1    1 to 10 µM
1  C=CC(=O)Nc1cccc(-c2n[nH]c3cnc(Nc4ccc(OCCOC)cc4)nc23)c1   0.1 to 1 µM
2  C=CC(=O)Nc1cccc(-n2c(=O)[nH]c3cnc(Nc4ccc(OCCOC)cc4)nc32)c1       > 10 µM
3  CN(C)C/C=C/C(=O)N1CCC[C@@H](n2c(=O)[nH]c3cnc(Nc4ccc(F)cc4)nc32)C1    1 to 10 µM
4  C=CC(=O)Nc1cccc(-c2c[nH]c3cnc(Nc4ccc(OCCOC)cc4)nc23)c1    1 to 10 µM
5  C=CC(=O)Nc1cccc(-n2c(=O)[nH]c3cnc(Nc4ccc(F)cc4)nc32)c1       > 10 µM

###

# testedSystem: BTK (Homo sapiens)
# Construct: N-terminal His6-tagged, recombinant, full-length, human BTK; His6 (N)
# Sequence (Q06187 whole entry): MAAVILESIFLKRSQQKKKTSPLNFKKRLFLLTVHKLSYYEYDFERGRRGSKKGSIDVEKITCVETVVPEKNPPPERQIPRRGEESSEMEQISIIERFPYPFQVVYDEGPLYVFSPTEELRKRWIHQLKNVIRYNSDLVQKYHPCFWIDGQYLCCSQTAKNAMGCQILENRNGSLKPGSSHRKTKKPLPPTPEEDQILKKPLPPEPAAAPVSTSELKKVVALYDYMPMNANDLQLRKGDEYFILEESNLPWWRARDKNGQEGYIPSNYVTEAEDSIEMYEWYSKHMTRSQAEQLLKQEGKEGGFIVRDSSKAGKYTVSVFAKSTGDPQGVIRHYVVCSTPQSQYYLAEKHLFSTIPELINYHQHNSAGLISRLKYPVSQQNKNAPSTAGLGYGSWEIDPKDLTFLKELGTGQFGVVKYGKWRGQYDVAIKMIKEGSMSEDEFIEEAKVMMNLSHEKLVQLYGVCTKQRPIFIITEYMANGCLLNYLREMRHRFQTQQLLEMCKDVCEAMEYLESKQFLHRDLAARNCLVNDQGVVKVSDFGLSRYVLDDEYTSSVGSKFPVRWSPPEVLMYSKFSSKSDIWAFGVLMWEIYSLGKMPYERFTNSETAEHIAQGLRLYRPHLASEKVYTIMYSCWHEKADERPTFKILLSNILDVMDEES
# testDescription: Inhibition of a panel of kinases: BTK in vitro kinase assay
# testParameters: one of the methods outlined in Example 11a, 11b and 11c
Each entry below carries its reported IC50.
readoutName: IC50

>>> df
                                   compound    readoutvalue
0  CN(C)C/C=C/C(=O)N1CCC(n2c(=O)[nH]c3cnc(Nc4ccc(F)cc4)nc32)CC1 [Compound 35]  100 to 1000 nM
1  C=CC(=O)Nc1cccc(-n2c(=O)[nH]c3cnc(Nc4ccc(F)cc4)nc32)c1 [Compound 17]        < 100 nM
2  C=CC(=O)Nc1cccc(-n2c(=O)[nH]c3cnc(Nc4ccc(OCCOC)cc4)nc32)c1 [Compound 43]        < 100 nM
3  C=CC(=O)Nc1cccc(-c2c[nH]c3cnc(Nc4ccc(OCCOC)cc4)nc23)c1 [Compound 60]  100 to 1000 nM
4  C=CC(=O)Nc1cccc(-c2n[nH]c3cnc(Nc4ccc(OCCOC)cc4)nc23)c1 [Compound 54]        < 100 nM
5  CN(C)C/C=C/C(=O)Nc1cccc(-n2c(=O)[nH]c3cnc(Nc4ccc(F)cc4)nc32)c1 [Compound 48]        < 100 nM
6  CN(C)C/C=C/C(=O)N1CC(n2c(=O)[nH]c3cnc(Nc4ccc(F)cc4)nc32)C1 [Compound 23]  100 to 1000 nM
7  CN(C)C/C=C/C(=O)N1CCC[C@@H](n2c(=O)[nH]c3cnc(Nc4ccc(F)cc4)nc32)C1 [Compound 29]  100 to 1000 nM
8  COCCOc1ccc(Nc2ncc3[nH]c(=O)n(-c4cccc(NC(=O)/C=C/CN(C)C)c4)c3n2)cc1 [Compound 6]        < 100 nM
9  C=CC(=O)N(C)c1cccc(-n2c(=O)[nH]c3cnc(Nc4ccc(OCCOC)cc4)nc32)c1 [Compound 13]        < 100 nM

###

# testedSystem: UniProt:P00533
# Sequence (P00533 25-1210, species assumed): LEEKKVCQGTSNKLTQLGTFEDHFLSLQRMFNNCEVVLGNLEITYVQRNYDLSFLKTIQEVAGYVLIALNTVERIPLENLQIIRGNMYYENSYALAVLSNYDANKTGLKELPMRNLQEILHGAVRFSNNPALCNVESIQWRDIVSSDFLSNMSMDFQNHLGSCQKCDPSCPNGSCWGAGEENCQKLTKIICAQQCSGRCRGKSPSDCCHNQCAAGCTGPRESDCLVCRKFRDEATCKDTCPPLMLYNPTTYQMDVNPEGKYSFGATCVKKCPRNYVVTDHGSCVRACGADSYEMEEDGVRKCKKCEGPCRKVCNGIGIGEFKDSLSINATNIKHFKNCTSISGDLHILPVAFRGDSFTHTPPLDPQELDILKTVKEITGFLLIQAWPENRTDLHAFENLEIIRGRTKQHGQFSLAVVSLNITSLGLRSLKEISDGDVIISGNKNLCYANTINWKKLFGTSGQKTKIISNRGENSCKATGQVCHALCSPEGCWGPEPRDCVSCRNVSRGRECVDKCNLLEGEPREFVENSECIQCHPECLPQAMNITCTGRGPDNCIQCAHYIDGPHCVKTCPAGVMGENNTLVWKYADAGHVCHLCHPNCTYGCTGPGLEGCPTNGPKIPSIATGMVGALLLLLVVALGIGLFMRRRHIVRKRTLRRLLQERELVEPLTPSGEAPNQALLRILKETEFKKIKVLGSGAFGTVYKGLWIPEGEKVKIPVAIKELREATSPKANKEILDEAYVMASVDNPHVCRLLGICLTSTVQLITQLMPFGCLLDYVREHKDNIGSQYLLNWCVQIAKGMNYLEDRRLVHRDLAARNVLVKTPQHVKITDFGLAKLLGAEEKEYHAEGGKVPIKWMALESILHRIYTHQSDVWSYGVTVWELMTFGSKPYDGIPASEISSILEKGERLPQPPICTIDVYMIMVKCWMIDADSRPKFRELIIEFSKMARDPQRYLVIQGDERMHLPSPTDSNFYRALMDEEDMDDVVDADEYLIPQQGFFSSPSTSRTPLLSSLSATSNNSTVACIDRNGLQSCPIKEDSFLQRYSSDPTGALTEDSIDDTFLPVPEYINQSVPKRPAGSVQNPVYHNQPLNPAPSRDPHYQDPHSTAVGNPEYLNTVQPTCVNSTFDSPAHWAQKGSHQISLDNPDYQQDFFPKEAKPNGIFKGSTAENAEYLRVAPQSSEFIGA
pIC50: −log10 of the molar value.
Each entry below carries its reported pIC50.
readoutName: pIC50

>>> df
                                   compound  readoutvalue
0  CN(C)C/C=C/C(=O)N1CC(n2c(=O)[nH]c3cnc(Nc4ccc(F)cc4)nc32)C1 [Compound 23]        < 5.00
1  C=CC(=O)N(C)c1cccc(-n2c(=O)[nH]c3cnc(Nc4ccc(OCCOC)cc4)nc32)c1 [Compound 13]  5.00 to 6.00
2  C=CC(=O)Nc1cccc(-n2c(=O)[nH]c3cnc(Nc4ccc(F)cc4)nc32)c1 [Compound 17]  6.00 to 7.00
